Origin of measurements: patent US8273774B2

target: recombinant Human Phosphodiesterase B2 (PDE4B2) (Homo sapiens, UniProt Q07343); experiment: Human Phosphodiesterase B2 Radiometric Assay; assay type: biochemical; settings: 0.1 μg/mL recombinant PDE4B2; preincubated at 30 C for 30 min; [3H]cyclic AMP 8 nM, stopped after 20 min; yttrium silicate SPA beads; read-out: PDE4B2 pIC50 (converted)
Sequence (Q07343 1-564 isoform Q07343-2): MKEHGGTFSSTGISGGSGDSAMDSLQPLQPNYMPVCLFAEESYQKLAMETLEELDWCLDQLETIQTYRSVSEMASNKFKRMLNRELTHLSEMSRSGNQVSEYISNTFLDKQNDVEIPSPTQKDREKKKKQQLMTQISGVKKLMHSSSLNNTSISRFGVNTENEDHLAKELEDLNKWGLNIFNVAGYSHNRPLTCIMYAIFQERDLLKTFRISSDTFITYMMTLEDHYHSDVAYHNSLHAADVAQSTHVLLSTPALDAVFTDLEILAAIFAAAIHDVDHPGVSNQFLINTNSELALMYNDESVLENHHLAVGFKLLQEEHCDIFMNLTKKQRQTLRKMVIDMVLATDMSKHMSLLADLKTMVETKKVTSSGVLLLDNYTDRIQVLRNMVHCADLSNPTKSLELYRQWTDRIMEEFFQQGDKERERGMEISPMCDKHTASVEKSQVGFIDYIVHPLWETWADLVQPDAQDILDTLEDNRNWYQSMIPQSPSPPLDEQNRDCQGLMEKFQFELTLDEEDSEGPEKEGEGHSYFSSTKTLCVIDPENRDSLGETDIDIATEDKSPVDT
quantity_name: IC50 (pM)

1: Cc1cccc2nc(C(=O)N[C@H]3CC[C@@H](NC(=O)c4cc(F)cnc4Oc4cccc(-c5ccc(O)cc5CN5CCOCC5)c4)CC3)cn12
2: Cc1cccc(C(=O)N[C@H]2CC[C@@H](NC(=O)c3cc(F)cnc3Oc3cccc(-c4ccc(O)c(CN5C[C@@H](C)N[C@@H](C)C5)c4)c3)CC2)n1
3: Cc1cc(C)n2ncc(C(=O)N[C@H]3CC[C@@H](NC(=O)c4cc(F)cnc4Oc4cccc(-c5ccc(CN6CCCN(CCO)CC6)cc5CN5CCSCC5)c4)CC3)c2n1
Rank the listed molecules according to IC50, from the largest value downward. Please write the labels in the order that was asked for.
2, 3, 1
(2: 79.4 pM, 3: 39.8 pM, 1: 15.8 pM)

I: Cc1cccc2nc(C(=O)N[C@H]3CC[C@@H](NC(=O)c4cc(F)cnc4Oc4cccc(-c5ccc(C(=O)O)cc5CN5CCOCC5)c4)CC3)cn12
II: O=C(N[C@H]1CC[C@@H](NC(=O)c2cc(F)cnc2Oc2cccc(-c3ccc(O)cc3CN3CCOCC3)c2)CC1)c1cc2ccccc2nc1O
Could you determine which record has the numerically smaller IC50? Candidates: I and II Give the label of your selection.
II
(II: 50.1 pM, I: 79.4 pM)

###

biological target: recombinant Human Phosphodiesterase B2 (PDE4B2) (Homo sapiens, UniProt Q07343); assay: Human Phosphodiesterase B2 Radiometric Assay; assay type: biochemical; settings: 0.1 μg/mL recombinant PDE4B2; preincubated at 30 C for 30 min; [3H]cyclic AMP 8 nM, stopped after 20 min; yttrium silicate SPA beads; read-out: PDE4B2 pIC50 (converted)
quantity_name: IC50 (nM)

In the examples that follow, each entry is paired with its recorded IC50.
compound=COc1c(CN2C[C@@H](C)N[C@@H](C)C2)cccc1-c1cccc(Oc2ncc(F)cc2C(=O)N[C@H]2CC[C@@H](NC(=O)c3cc(C)n(C)n3)CC2)c1 quantity_name=IC50 unit=nM value=0.251
compound=CN1CCCN(CCc2ccc(-c3cccc(Oc4ncc(F)cc4C(=O)N[C@H]4CC[C@@H](NC(=O)c5cc6n(n5)CCCC6)CC4)c3)cc2)CC1 quantity_name=IC50 unit=nM value=0.0794
compound=C[C@@H]1CN(Cc2ccc(-c3cccc(Oc4ncc(F)cc4C(=O)N[C@H]4CC[C@@H](NC(=O)c5ccc6ccccc6n5)CC4)c3)c(CN3CCOCC3)c2)C[C@H](C)N1 quantity_name=IC50 unit=nM value=0.0501
compound=Cc1cc(C(=O)N[C@H]2CC[C@@H](NC(=O)c3cc(F)cnc3Oc3cccc(-c4ccc(CCCN5CCNCC5)cc4)c3)CC2)n[nH]1 quantity_name=IC50 unit=nM value=0.0794
compound=C[C@@H]1CN(Cc2ccc(-c3cccc(Oc4ncc(F)cc4C(=O)N[C@H]4CC[C@@H](NC(=O)c5cccc6[nH]cnc56)CC4)c3)c(CN3CCSCC3)c2)C[C@H](C)N1 quantity_name=IC50 unit=nM value=0.0126
compound=Cc1nc(C(=O)N[C@H]2CC[C@@H](NC(=O)c3cc(F)cnc3Oc3cccc(-c4ccc(CCCN5CCCN(C)CC5)cc4)c3)CC2)cs1 quantity_name=IC50 unit=nM value=0.0631

P: Cc1cccc2nc(C(=O)N[C@H]3CC[C@@H](NC(=O)c4cc(F)cnc4Oc4cccc(-c5ccc(CN6C[C@@H](C)N[C@@H](C)C6)c(O)c5)c4)CC3)cn12
Q: Cc1cccc2nc(C(=O)N[C@H]3CC[C@@H](NC(=O)c4cc(F)cnc4Oc4cccc(-c5ccc(CN6C[C@@H](C)N[C@@H](C)C6)cc5CN5CCOCC5)c4)CC3)cn12
Could you determine which record has the numerically smaller IC50? Candidates: P and Q Give the label of your selection.
Q
(Q: 0.0631 nM, P: 0.2 nM)

1: Cc1cc(C(=O)N[C@H]2CC[C@@H](NC(=O)c3cc(F)cnc3Oc3cccc(-c4ccc(O)cc4CN4CCCOCC4)c3)CC2)nn1C
2: Cc1cccc2nc(C(=O)N[C@H]3CC[C@@H](NC(=O)c4cc(F)cnc4Oc4cccc(-c5ccc(CN6CCCC6)cc5)c4)CC3)cn12
3: CN(C)C1(C(=O)NC2CCC(NC(=O)c3cc(F)cnc3Oc3cccc(-c4ccc(O)cc4CN4CCOCC4)c3)CC2)CC1 (centres unmarked)
# rank by IC50, ascending (min first) Please write the labels in the order that was asked for.
1, 2, 3

###

molecular target: recombinant Human Phosphodiesterase B2 (PDE4B2) (Homo sapiens); test: Human Phosphodiesterase B2 Radiometric Assay; type: biochemical; conditions: 0.1 μg/mL recombinant PDE4B2; preincubated at 30 C for 30 min; [3H]cyclic AMP 8 nM, stopped after 20 min; yttrium silicate SPA beads; read-out: PDE4B2 pIC50 (converted)
quantity_name: IC50 (nM)

chem_smiles=Cc1nc(C(=O)N[C@H]2CC[C@@H](NC(=O)c3cc(F)cnc3Oc3cccc(-c4ccc(O)cc4CN(C)C)c3)CC2)cs1 quantity_name=IC50 value=0.0316

a: Cc1cccc2nc(C(=O)N[C@H]3CC[C@@H](NC(=O)c4cc(F)cnc4Oc4cccc(-c5ccc(O)cc5CN(C)C)c4)CC3)cn12
b: O=C(N[C@H]1CC[C@@H](NC(=O)c2cnn3cccnc23)CC1)c1cc(F)cnc1Oc1cccc(-c2ccc(CN3CCSCC3)cc2CN2CCOCC2)c1
Which of the two items, a and b , has the greater recorded IC50? Give the label of your selection.
a

###

molecular target: recombinant Human Phosphodiesterase B2 (PDE4B2) (Homo sapiens, UniProt Q07343); test: Human Phosphodiesterase B2 Radiometric Assay; format: biochemical; conditions: 0.1 μg/mL recombinant PDE4B2; preincubated at 30 C for 30 min; [3H]cyclic AMP 8 nM, stopped after 20 min; yttrium silicate SPA beads; read-out: PDE4B2 pIC50 (converted)
quantity_name: IC50 (pM)

In the examples that follow, each entry is paired with its recorded IC50.
molecule="C[C@@H]1CN(Cc2cc(-c3cccc(Oc4ncc(F)cc4C(=O)N[C@H]4CC[C@@H](NC(=O)c5cccc6[nH]cnc56)CC4)c3)ccc2O)C[C@H](C)N1 [Example 94]" value=63.1
molecule="Cc1nc(C(=O)N[C@H]2CC[C@@H](NC(=O)c3cc(F)cnc3Oc3cccc(-c4ccc(CCCN5C[C@@H](C)N[C@@H](C)C5)cc4)c3)CC2)cs1 [Example 75]" value=31.6
molecule="Cc1nc(C(=O)N[C@H]2CC[C@@H](NC(=O)c3cc(F)cnc3Oc3cccc(-c4ccc(CN(C)C)cc4CN4CCOCC4)c3)CC2)cs1 [Example 119]" value=79.4
molecule="C[C@@H]1CN(CCCc2ccc(-c3cccc(Oc4ncc(F)cc4C(=O)N[C@H]4CC[C@@H](NC(=O)c5cc6ncccn6n5)CC4)c3)cc2)C[C@H](C)N1 [Example 143]" value=79.4

I: C[C@@H]1CN(Cc2ccc(-c3cccc(Oc4ncc(F)cc4C(=O)N[C@H]4CC[C@@H](NC(=O)c5cc6ccccn6n5)CC4)c3)cc2O)C[C@H](C)N1 [Example 97]
II: Cc1cc(C(=O)N[C@H]2CC[C@@H](NC(=O)c3cc(F)cnc3Oc3cccc(-c4cccc(CN5C[C@@H](C)N[C@@H](C)C5)c4)c3)CC2)nn1C [Example 72]
Could you determine which record has the numerically smaller IC50? Candidates: I and II Give the label of your selection.
II

###

biological target: recombinant Human Phosphodiesterase B2 (PDE4B2) (Homo sapiens, UniProt Q07343); assay: Human Phosphodiesterase B2 Radiometric Assay; assay type: biochemical; conditions: 0.1 μg/mL recombinant PDE4B2; preincubated at 30 C for 30 min; [3H]cyclic AMP 8 nM, stopped after 20 min; yttrium silicate SPA beads; read-out: PDE4B2 pIC50 (converted)
quantity_name: IC50 (nM)

chem_smiles=Cc1cc(C(=O)N[C@H]2CC[C@@H](NC(=O)c3cc(F)cnc3Oc3cccc(-c4ccc(CCCN5C[C@@H](C)N[C@@H](C)C5)cc4)c3)CC2)[nH]n1 quantity_name=IC50 unit=nM value=0.126
chem_smiles=Cc1nc(C(=O)N[C@H]2CC[C@@H](NC(=O)c3cc(F)cnc3Oc3cccc(-c4ccc(CN5CCCN(C)CC5)cc4)c3)CC2)cs1 quantity_name=IC50 unit=nM value=0.0501
chem_smiles=O=C(N[C@H]1CC[C@@H](NC(=O)c2cc(F)cnc2Oc2cccc(-c3ccc(O)cc3CN3CCOCC3)c2)CC1)c1cc(O)c2ccccc2n1 quantity_name=IC50 unit=nM value=0.1
chem_smiles=Cc1nc(CN[C@H]2CC[C@@H](NC(=O)c3cc(F)cnc3Oc3cccc(-c4ccc(O)cc4CN4CCOCC4)c3)CC2)cs1 quantity_name=IC50 unit=nM value=5.01

1: C[C@@H]1CN(CCCc2ccc(-c3cccc(Oc4ncc(F)cc4C(=O)N[C@H]4CC[C@@H](NC(=O)c5csc(CO)n5)CC4)c3)cc2)C[C@H](C)N1
2: O=C(N[C@H]1CC[C@@H](NC(=O)c2cc(F)cnc2Oc2cccc(-c3ccc(CCCN4CCNCC4)cc3)c2)CC1)c1cn2cc(F)ccc2n1
3: Cc1cccc2nc(C(=O)N[C@H]3CC[C@@H](NC(=O)c4cc(F)cnc4Oc4cccc(-c5ccc(CN6CCCN(C)CC6)cc5)c4)CC3)cn12
4: O=C(N[C@H]1CC[C@@H](NC(=O)c2cc(F)cnc2Oc2cccc(-c3ccc(CNCCCN4CCOCC4)cc3)c2)CC1)c1cn2cc(F)ccc2n1
Please rank these molecules by IC50 in descending order. Please write the labels in the order that was asked for.
4, 3, 2, 1
(4: 0.631 nM, 3: 0.126 nM, 2: 0.0631 nM, 1: 0.0316 nM)
